Molecular target: cFMS (Homo sapiens, UniProt P07333)
Construct: THP-1 cells (human acute monocytic leukemia cell line) were serum-starved for 4 hours; endogenous in cells
Sequence (P07333 20-972): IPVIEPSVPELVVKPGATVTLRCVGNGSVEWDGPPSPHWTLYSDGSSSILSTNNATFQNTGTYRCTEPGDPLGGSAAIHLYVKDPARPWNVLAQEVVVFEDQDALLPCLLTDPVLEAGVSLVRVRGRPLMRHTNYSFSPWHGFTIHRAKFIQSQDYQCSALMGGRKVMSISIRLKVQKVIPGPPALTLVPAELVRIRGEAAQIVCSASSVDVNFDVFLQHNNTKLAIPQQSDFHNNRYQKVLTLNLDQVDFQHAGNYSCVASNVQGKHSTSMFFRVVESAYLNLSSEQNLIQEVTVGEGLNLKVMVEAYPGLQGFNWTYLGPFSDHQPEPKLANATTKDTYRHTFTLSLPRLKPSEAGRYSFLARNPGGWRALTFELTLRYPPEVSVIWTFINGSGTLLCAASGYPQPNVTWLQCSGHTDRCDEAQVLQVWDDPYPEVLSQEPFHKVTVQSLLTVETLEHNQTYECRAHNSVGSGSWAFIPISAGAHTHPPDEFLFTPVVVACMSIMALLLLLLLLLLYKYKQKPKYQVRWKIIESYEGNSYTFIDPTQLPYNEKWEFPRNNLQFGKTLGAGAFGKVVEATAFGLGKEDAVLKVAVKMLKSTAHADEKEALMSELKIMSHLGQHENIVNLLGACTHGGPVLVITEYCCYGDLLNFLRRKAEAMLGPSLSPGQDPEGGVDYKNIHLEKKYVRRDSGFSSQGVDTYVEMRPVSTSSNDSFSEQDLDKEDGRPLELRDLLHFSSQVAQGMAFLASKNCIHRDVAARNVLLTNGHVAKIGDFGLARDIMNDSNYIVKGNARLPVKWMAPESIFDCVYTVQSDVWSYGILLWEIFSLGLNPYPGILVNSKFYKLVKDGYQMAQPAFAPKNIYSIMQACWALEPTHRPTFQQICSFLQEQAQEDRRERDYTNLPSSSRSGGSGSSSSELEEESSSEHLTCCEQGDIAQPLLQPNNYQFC
Experiment: cFMS Cell-Based Assay (Example C)
Conditions: averaged IC50; phospho-cFMS in THP-1 cells stimulated with 250 ng/mL recombinant human MCSF; read-out: cFMS Cell ELISA IC50
IC50 strictly under 80 nM means Yes; at 80 nM or over means No.

Previously resolved entries follow.
N#Cc1ccc2ncc(C(=O)Nc3cccc4c3cnn4Cc3ccccc3)n2c1    No
Cc1nn(Cc2csc(C(C)C)n2)c2cccc(NC(=O)c3cnc4cc(OCCN5CCN(C)[C@@H](C)C5)ccn34)c12    Yes

Please check: IC50 for COCCOc1ccn2c(C(=O)Nc3cccc4c3cnn4C[C@@H]3CCCN(C(=O)OC(C)(C)C)C3)cnc2c1 , strictly under 80 nM or not?
No

----------
Target: cFMS (Homo sapiens, UniProt P07333)
Construct: THP-1 cells (human acute monocytic leukemia cell line) were serum-starved for 4 hours; endogenous in cells
Test: cFMS Cell-Based Assay (Example C)
Details: averaged IC50; phospho-cFMS in THP-1 cells stimulated with 250 ng/mL recombinant human MCSF; read-out: cFMS Cell ELISA IC50
Where a name gives a salt, the structure may show the parent alone.
Kindly state IC50 for each of the entries shown.
Give bare numbers, in nM.

Check out these entries, answers already filled in.
Cc1cccc(Cn2nc(C)c3c(NC(=O)c4cnc5cc(C(C)NCCO)ccn45)cccc32)n1 (stereo not shown) [Example 75]    427
Cc1cccc(Cn2nc(C)c3c(NC(=O)c4cnc5cc(OCC(O)CO)ccn45)cccc32)n1 (stereo not shown) [Example 58]    21.9

Give IC50 for all compounds that follow.
1. O=C(Nc1cccc2c1cnn2Cc1ccccc1)c1cnc2cc(C(O)CO)ccn12 (stereo not shown) [Example 157]
2. Cc1nn(Cc2csc(C(C)C)n2)c2cccc(NC(=O)c3cnc4cc(OCCN5CC6(CN(C)C6)C5)ccn34)c12 [Example 13]
3. Cc1cccc(Cn2ncc3c(NC(=O)c4cnc5cc(OCCN6CCN(C)CC6)ccn45)cccc32)n1 [Example 150]
4. C[C@H]1CN(CCOc2ccn3c(C(=O)Nc4cccc5c4c(F)nn5Cc4cccc(C5CC5)n4)cnc3c2)CCN1C [Example 24]
5. CN1CCN(CCOc2ccn3c(C(=O)Nc4cccc5c4cnn5Cc4ccc(C(F)(F)F)cn4)cnc3c2)CC1 [Example 103, trihydrochloride]

1: 105; 2: 12.9; 3: 4.6; 4: 6.8; 5: 7.3

----------
Target: PDGFR beta (Homo sapiens)
Construct: endogenous in cells; host or cells: HS27 human fibroblast cell line
Sequence (P09619 33-1106): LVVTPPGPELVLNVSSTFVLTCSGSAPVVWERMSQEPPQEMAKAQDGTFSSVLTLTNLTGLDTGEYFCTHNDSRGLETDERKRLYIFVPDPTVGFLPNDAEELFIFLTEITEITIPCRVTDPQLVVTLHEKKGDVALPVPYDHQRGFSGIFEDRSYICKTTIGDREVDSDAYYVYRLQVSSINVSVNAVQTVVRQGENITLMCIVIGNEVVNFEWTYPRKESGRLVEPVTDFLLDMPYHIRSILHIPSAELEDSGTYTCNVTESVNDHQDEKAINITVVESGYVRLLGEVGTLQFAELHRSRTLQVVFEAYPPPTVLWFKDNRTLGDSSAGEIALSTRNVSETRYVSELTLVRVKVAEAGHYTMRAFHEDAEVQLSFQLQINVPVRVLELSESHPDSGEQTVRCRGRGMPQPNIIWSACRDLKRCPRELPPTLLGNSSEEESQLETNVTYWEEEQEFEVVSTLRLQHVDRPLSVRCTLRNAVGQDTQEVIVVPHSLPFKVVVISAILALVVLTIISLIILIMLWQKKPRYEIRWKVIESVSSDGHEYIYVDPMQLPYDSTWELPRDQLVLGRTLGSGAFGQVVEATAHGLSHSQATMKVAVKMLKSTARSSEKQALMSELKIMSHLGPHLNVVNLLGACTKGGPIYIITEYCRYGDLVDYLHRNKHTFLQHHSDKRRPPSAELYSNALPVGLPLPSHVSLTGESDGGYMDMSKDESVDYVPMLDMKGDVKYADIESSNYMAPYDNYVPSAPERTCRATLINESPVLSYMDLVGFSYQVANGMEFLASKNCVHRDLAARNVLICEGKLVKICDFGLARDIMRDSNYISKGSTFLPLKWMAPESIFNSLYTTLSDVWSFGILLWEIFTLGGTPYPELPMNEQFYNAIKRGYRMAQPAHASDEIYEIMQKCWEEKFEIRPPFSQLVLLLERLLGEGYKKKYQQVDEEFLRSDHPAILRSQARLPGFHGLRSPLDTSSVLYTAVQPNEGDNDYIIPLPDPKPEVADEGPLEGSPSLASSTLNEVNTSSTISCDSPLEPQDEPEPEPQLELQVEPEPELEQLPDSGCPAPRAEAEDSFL
Assay: Phospho PDGFR Cell Assay, sandwich ELISA (Example A)
Type: cell-based
Settings: averaged IC50, PDGFR beta phosphorylation in HS27 human fibroblast cell line, PDGF-BB stimulation 5 minutes
Where a name gives a salt, the structure may show the parent alone.
readout.kind: pIC50
Numbers only, as −log10 of the molar value.

Check out these entries, answers already filled in.
Cc1nn(Cc2cccc(C3CC3)n2)c2cccc(NC(=O)c3cnc4cc(OCCN5CCN(C(C)C)CC5)ccn34)c12    7.55
Cc1nn(Cc2cccc(C3CC3)n2)c2cccc(NC(=O)c3cnc4cc(OCCN5CCN(C)[C@@H](C)C5)ccn34)c12 [Example 26, dihydrochloride]    7.53
O=C(Nc1cccc2c1cnn2Cc1ccccc1)c1cnc2cc(O)ccn12    6.86
Cc1nn(Cc2cccc(C(C)C)n2)c2cccc(NC(=O)c3cnc4cc(OCCN5CCN(C)[C@@H](C)C5)ccn34)c12    7.38
CCN1CCN(CCOc2ccn3c(C(=O)Nc4cccc5c4c(C)nn5Cc4cccc(C(C)C)n4)cnc3c2)CC1    8.03
O=C(Nc1cccc2c1cnn2Cc1ccccc1)c1cnc2cc(C(O)CO)ccn12 (centres unmarked)    6.56
CCCc1ccc(Cn2nc(C)c3c(NC(=O)c4cnc5cc(OCCN6CCN(C)[C@@H](C)C6)ccn45)cccc32)nc1    6.60
Cc1nn(Cc2cccc(CC(C)C)n2)c2cccc(NC(=O)c3cnc4cc(OCCN5CCN(C)[C@@H](C)C5)ccn34)c12    7.43

Give pIC50 for all compounds that follow.
1. O=C(Nc1cccc2c1cnn2Cc1ccccc1)c1cnc2cc(Br)ccn12
2. O=C(Nc1cccc2c1cnn2Cc1ccccc1)c1cnc2ccc(Br)cn12
3. Cc1nn(Cc2cccc(C(C)C)n2)c2cccc(NC(=O)c3cnc4cc(OCCN5CC6(CNC6)C5)ccn34)c12 [Example 3, trihydrochloride]
4. COCCOc1ccn2c(C(=O)Nc3cccc4c3cnn4C[C@@H]3CCCN(C(=O)OC(C)(C)C)C3)cnc2c1
5. Cc1cccc(Cn2nc(C)c3c(NC(=O)c4cnc5ccc(C#N)cn45)cccc32)n1
6. Cc1cccc(Cn2nc(C)c3c(NC(=O)c4cnc5cc(OCCN6CCN(C)[C@@H](C)C6)ccn45)cccc32)n1

[6.63, 6.55, 6.86, 7.26, 6.05, 6.37]

Origin of values: patent US10669269B2
